FYI, the data here is from ChEMBL document CHEMBL1926609.

assay: Inhibition of Plasmodium falciparum HGXPRT
pKi: −log10 of the molar value.
recorded metric: pKi

{"compound smiles": "Nc1nc(O)c2ncn(CCCCCCCP(=O)(O)O)c2n1", "recorded metric": "pKi", "inequality operator": "=", "measured": 5.00}
{"compound smiles": "O=c1[nH]cnc2c1ncn2CCCCP(=O)(O)O", "recorded metric": "pKi", "inequality operator": "<", "measured": 4.00}
{"compound smiles": "Nc1nc2c(ncn2COCCCP(=O)(O)O)c(=O)[nH]1", "recorded metric": "pKi", "inequality operator": "=", "measured": 5.17}

----------
test: Inhibition of Plasmodium falciparum HGXPRT
pKi: −log10 of the molar value.

{"compound smiles": "Nc1nc2c(ncn2CP(=O)(O)O)c(=O)[nH]1", "pKi": "< 4.00"}
{"compound smiles": "Nc1nc(O)c2ncn(COCCP(=O)(O)O)c2n1", "pKi": 5.30}
{"compound smiles": "O=c1[nH]cnc2c1ncn2CCP(=O)(O)O", "pKi": 5.66}
{"compound smiles": "Nc1nc(O)c2ncn(COCCCCP(=O)(O)O)c2n1", "pKi": 3.70}
{"compound smiles": "Nc1nc2c(ncn2CCCP(=O)(O)O)c(=O)[nH]1", "pKi": "< 4.00"}
{"compound smiles": "O=c1[nH]cnc2c1ncn2CP(=O)(O)O", "pKi": "< 4.00"}
{"compound smiles": "O=c1[nH]cnc2c1ncn2CCCCCCCP(=O)(O)O", "pKi": "< 4.00"}
{"compound smiles": "Nc1nc(O)c2ncn(CCCCP(=O)(O)O)c2n1", "pKi": "< 4.00"}
